These data points were gathered from patent US8754222B2.

# TARGET OF ASSAY: ΔF508-CFTR (Homo sapiens, UniProt P13569, DEL508-508)
# Sequence (P13569 with tags, fused parts or gaps DEL508-508): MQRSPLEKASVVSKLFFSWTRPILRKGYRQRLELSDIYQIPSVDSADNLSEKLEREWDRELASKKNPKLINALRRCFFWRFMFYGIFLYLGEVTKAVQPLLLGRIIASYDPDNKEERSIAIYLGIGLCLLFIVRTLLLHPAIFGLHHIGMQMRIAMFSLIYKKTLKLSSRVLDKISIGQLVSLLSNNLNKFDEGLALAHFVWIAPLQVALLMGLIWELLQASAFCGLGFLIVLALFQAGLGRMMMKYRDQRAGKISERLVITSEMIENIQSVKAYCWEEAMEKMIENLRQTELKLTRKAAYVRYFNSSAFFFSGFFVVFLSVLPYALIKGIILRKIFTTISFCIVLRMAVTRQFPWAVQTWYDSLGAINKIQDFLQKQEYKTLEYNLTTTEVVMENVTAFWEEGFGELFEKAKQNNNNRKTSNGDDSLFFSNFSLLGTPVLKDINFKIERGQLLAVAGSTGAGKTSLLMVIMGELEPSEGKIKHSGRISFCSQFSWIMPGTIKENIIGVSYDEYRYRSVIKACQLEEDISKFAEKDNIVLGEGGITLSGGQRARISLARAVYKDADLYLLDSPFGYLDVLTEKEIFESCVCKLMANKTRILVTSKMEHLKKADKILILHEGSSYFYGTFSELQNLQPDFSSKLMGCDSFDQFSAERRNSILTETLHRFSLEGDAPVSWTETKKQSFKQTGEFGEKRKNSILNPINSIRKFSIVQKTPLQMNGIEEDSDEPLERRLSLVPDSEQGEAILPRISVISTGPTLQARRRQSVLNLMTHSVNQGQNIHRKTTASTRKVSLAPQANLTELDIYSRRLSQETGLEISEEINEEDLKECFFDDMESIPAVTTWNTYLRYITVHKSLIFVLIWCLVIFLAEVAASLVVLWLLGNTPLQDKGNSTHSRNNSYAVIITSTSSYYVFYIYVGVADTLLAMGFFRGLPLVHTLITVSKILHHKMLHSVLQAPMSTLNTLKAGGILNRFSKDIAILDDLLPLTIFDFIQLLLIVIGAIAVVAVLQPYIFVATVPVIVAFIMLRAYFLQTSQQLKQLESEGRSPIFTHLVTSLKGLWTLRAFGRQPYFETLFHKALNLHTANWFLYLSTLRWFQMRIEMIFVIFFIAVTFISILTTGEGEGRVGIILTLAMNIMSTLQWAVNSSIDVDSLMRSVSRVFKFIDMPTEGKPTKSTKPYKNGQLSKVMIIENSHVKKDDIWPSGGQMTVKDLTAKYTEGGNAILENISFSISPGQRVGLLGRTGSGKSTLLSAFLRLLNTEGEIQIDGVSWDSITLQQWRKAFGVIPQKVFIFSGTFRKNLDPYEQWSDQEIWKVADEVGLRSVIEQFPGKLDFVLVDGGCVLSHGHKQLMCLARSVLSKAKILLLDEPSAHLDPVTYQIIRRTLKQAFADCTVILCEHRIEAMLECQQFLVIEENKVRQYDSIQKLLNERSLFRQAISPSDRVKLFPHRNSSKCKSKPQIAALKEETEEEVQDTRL
# EXPERIMENT: Membrane potential optical assay, identification of potentiator compounds
# MEASUREMENT CONTEXT: assay not specified; ΔF508-CFTR potentiation, NIH 3T3 cells
# Source text: Membrane Potential Optical Methods for Assaying ΔF508-CFTR Modulation Properties of Compounds The assay utilizes fluorescent voltage sensing dyes to measure changes in membrane potential using a fluorescent plate reader (e.g., FLIPR III, Molecular Devices, Inc.) as a readout for increase in functional ΔF508-CFTR in NIH 3T3 cells. […]
pEC50: −log10 of the molar value.
METRIC NAME: pEC50

q: Supply pEC50 value. Item: O=C(Nc1ccc(N2C3CCC2CC3)cc1C(F)(F)F)c1c[nH]c2cccc(C(F)(F)F)c2c1=O [Compound 1 Form A]
a: > 5.70
